Value source: patent US12582648B2

# Tested target: human dopamine D2 short isoform (Homo sapiens, UniProt P14416)
# Sequence (P14416 1-414 isoform P14416-2): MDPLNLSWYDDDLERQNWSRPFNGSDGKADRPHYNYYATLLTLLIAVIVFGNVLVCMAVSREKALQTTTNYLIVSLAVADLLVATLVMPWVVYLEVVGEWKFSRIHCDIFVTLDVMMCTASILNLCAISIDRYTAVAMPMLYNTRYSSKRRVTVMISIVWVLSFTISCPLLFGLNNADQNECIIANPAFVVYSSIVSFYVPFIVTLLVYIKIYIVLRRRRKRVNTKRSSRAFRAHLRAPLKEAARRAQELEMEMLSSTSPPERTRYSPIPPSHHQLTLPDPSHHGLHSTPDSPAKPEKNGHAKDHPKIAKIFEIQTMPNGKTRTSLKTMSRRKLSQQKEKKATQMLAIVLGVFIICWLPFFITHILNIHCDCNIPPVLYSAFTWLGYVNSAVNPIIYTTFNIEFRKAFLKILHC
# Measurement notes: Calcium fluxes assay of D2-receptor activation/inhibition (HEK293 cells)
# Condition description: calcium flux, HEK293 cells, human D2 short isoform
Measured endpoint: EC50 (nM)
Answers are plain numbers, in nM.

CCCN(CCC)CCc1cccc2c1CC(=O)N2	20

Consider the additional compound presented here.
Requested read-out: EC50. Entry: CCCN(CCc1cccs1)[C@H]1CCc2c(O)cccc2C1
0.3

----------
# Tested target: human dopamine D3 receptor (Homo sapiens)
# Sequence (P35462 whole entry): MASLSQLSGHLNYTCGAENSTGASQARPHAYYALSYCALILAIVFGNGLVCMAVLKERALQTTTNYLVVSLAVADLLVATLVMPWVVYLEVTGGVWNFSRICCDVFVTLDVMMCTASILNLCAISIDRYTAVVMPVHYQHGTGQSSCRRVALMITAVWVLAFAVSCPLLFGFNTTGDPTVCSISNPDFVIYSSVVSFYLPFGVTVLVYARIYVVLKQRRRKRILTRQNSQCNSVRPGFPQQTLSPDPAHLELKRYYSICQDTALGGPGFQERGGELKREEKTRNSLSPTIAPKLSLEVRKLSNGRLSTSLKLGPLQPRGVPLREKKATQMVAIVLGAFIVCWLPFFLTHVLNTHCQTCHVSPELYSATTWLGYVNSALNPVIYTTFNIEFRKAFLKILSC
# Measurement notes: Mitogenesis assay of D3-receptor activation ([3H]-thymidine incorporation, CHO cells)
# Condition description: mitogenesis, CHO cells expressing human D3 receptor
Measured endpoint: EC50 (pM)
Numbers only, in pM.

Suppose we examine the compound COCCC(=O)N[C@H]1CC[C@H](CCN2CCN(c3cccc(C#N)c3)CC2)CC1 [BP1.4979] ; what EC50 value has been reported?
700
